Items are presented alongside their recorded inhibition at 10 µM.
- EXPERIMENTAL_TARGET: UniProt:Q02763
- Sequence (Q02763 23-1124, species assumed): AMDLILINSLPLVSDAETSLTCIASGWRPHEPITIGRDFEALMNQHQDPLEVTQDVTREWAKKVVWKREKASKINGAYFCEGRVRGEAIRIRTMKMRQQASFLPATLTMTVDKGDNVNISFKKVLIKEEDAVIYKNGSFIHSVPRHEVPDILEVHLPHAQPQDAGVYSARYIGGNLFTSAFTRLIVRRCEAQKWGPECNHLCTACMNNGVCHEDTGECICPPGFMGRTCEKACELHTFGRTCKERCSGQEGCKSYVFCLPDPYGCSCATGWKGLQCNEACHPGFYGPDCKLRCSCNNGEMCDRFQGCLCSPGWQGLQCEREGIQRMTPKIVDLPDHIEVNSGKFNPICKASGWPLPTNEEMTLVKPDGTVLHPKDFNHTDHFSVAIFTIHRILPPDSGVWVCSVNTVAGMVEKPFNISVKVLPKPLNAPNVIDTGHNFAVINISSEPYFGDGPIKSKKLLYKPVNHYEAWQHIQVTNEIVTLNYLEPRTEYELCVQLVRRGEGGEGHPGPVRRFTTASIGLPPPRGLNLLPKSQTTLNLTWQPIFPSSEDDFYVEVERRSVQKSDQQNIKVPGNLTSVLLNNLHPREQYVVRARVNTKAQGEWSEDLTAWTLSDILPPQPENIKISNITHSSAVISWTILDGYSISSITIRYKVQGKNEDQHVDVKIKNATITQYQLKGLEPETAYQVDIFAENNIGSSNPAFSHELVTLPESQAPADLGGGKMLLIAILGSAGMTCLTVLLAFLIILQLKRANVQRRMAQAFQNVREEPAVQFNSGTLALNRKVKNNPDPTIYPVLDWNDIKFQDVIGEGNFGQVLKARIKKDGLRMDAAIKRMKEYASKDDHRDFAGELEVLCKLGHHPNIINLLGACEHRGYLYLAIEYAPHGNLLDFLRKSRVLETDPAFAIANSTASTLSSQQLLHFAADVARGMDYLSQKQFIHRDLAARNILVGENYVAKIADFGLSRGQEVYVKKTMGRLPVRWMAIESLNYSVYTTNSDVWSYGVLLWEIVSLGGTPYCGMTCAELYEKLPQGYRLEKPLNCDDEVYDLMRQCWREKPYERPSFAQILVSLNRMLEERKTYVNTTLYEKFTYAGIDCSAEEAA
- PROCEDURE_SUMMARY: FRET-based coupled-enzyme protein kinase inhibition assay
- Assay type: biochemical
- EXPERIMENTAL_SETUP: compound at 10 µM, 1% DMSO
Output spec: scalar in %, unitless text.

compound="Nc1ncnc2c1ncn2[C@@H]1O[C@H](COC(=O)N2CCN(CCc3ccccc3)CC2)[C@@H](O)[C@H]1O [Compound C26]" experimental_endpoint="inhibition at 10 µM" units=% val=-4

Challenge: I am curious: what inhibition at 10 µM value has been reported for N#CCCN1CCN(C(=O)OC[C@H]2O[C@@H](n3cnc4c(N)ncnc43)[C@H](O)[C@@H]2O)CC1 [Compound C70] ?
Response given: 1

Challenge: Can you handle Nc1ncnc2c1ncn2[C@@H]1O[C@H](COC(=O)NC[C@H](O)CO)[C@@H](O)[C@H]1O [Compound C8] next?
Response given: -3

Challenge: Can you handle Nc1ncnc2c1ncn2[C@@H]1O[C@H](COC(=O)N2CCS(=O)(=O)CC2)[C@@H](O)[C@H]1O [Compound C100] next?
Response given: 2

Challenge: Can you handle Nc1ncnc2c1ncn2[C@@H]1O[C@H](COC(=O)N2CCN(C(=O)N3CCOCC3)CC2)[C@@H](O)[C@H]1O [Compound C89] next?
Response given: -2

Challenge: Can you handle C[C@@H](NC(=O)OC[C@H]1O[C@@H](n2cnc3c(N)ncnc32)[C@H](O)[C@@H]1O)c1ccc(Cl)cc1 [Compound C4] next?
Response given: 12

Challenge: Can you handle Nc1ncnc2c1ncn2[C@@H]1O[C@H](COC(=O)NCCN2CCCC2=O)[C@@H](O)[C@H]1O [Compound C22] next?
Response given: 0

Challenge: Can you handle Nc1ncnc2c1ncn2[C@@H]1O[C@H](COC(=O)N2CCC[C@H]2CO)[C@@H](O)[C@H]1O [Compound C9] next?
Response given: -4

Challenge: Can you handle Nc1ncnc2c1ncn2[C@@H]1O[C@H](COC(=O)N2CCN(Cc3ccccc3)CC2CO)[C@@H](O)[C@H]1O (stereo partly drawn) [Compound C13] next?
Response given: 5

* * *

- EXPERIMENTAL_TARGET: PHKG2 (Homo sapiens, UniProt P15735)
- Sequence (P15735 whole entry, species assumed): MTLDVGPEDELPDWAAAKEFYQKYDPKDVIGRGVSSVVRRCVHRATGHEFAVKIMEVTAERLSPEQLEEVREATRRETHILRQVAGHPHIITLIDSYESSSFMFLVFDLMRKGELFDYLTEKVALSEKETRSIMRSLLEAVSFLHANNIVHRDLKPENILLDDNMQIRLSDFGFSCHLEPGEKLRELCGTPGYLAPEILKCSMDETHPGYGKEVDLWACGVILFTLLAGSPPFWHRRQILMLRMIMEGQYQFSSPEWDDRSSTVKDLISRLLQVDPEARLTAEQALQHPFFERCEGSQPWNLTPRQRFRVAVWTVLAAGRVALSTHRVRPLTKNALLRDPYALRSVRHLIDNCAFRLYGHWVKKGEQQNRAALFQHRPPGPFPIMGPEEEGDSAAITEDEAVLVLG
- PROCEDURE_SUMMARY: FRET-based coupled-enzyme protein kinase inhibition assay
- Assay type: biochemical
- EXPERIMENTAL_SETUP: compound at 10 µM, 1% DMSO
- Description: A biochemical assay was then performed in order to measure the protein kinase inhibition. It employed a fluorescence-based coupled-enzyme format and was based on the differential sensitivity of phosphorylated and non-phosphorylated peptides to proteolytic cleavage. […] A significant benefit of this ratiometric method for quantitating reaction progress is the elimination of well-to-well variations in FRET-peptide concentration and signal intensities. […]
EXPERIMENTAL_ENDPOINT: inhibition at 10 µM (%)
Output spec: scalar in %, unitless text.

smiles_notation=Nc1ncnc2c1ncn2[C@@H]1O[C@H](COC(=O)NC[C@H](O)CO)[C@@H](O)[C@H]1O experimental_endpoint="inhibition at 10 µM" val=-3
smiles_notation=CS(=O)(=O)N1CC2(CCN(C(=O)OC[C@H]3O[C@@H](n4cnc5c(N)ncnc54)[C@H](O)[C@@H]3O)CC2)c2ccccc21 experimental_endpoint="inhibition at 10 µM" val=-1
smiles_notation=CC(C)N1CCC(NC(=O)OC[C@H]2O[C@@H](n3cnc4c(N)ncnc43)[C@H](O)[C@@H]2O)CC1 experimental_endpoint="inhibition at 10 µM" val=-3
smiles_notation=N#CCCN1CCN(C(=O)OC[C@H]2O[C@@H](n3cnc4c(N)ncnc43)[C@H](O)[C@@H]2O)CC1 experimental_endpoint="inhibition at 10 µM" val=1
smiles_notation=Nc1ncnc2c1ncn2[C@@H]1O[C@H](COC(=O)NCCN2CCCC2=O)[C@@H](O)[C@H]1O experimental_endpoint="inhibition at 10 µM" val=-6

Challenge: I am curious: what inhibition at 10 µM value has been reported for Nc1ncnc2c1ncn2[C@@H]1O[C@H](COC(=O)N2CCN(C(=O)N3CCOCC3)CC2)[C@@H](O)[C@H]1O ?
Response given: -2

Challenge: Can you handle CN1CCN(CCNC(=O)OC[C@H]2O[C@@H](n3cnc4c(N)ncnc43)[C@H](O)[C@@H]2O)CC1 next?
Response given: 0

* * *

- EXPERIMENTAL_TARGET: AKT1 (PKB alpha) (Homo sapiens, UniProt P31749)
- Sequence (P31749 whole entry, species assumed): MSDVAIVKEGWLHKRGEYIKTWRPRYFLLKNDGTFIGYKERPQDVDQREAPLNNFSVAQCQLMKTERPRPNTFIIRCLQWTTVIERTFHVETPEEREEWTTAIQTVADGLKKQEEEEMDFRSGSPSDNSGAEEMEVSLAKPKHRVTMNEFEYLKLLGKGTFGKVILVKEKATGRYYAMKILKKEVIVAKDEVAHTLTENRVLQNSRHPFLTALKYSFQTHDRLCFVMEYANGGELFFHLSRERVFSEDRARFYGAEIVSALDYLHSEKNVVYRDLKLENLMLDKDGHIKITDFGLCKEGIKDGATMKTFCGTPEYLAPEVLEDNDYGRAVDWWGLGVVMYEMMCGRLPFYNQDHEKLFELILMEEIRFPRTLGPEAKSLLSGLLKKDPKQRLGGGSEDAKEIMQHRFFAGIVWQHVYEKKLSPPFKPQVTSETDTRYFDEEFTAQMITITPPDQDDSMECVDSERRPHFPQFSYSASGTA
- PROCEDURE_SUMMARY: FRET-based coupled-enzyme protein kinase inhibition assay
- Type: biochemical
- EXPERIMENTAL_SETUP: compound at 10 µM, 1% DMSO
EXPERIMENTAL_ENDPOINT: inhibition at 10 µM (%)
Output spec: scalar in %, unitless text.

compound="Nc1ncnc2c1ncn2[C@@H]1O[C@H](COC(=O)N2CCN(CCc3ccccc3)CC2)[C@@H](O)[C@H]1O [Compound C26]" experimental_target="AKT1 (PKB alpha) (Homo sapiens, UniProt P31749)" units=% val=0

Challenge: I am curious: what inhibition at 10 µM value has been reported for Nc1ncnc2c1ncn2[C@@H]1O[C@H](COC(=O)N2CCN(Cc3ccccc3)CC2CO)[C@@H](O)[C@H]1O (stereo partly shown) [Compound C13] ?
Response given: 2

* * *

- EXPERIMENTAL_TARGET: MAPK8 (JNK1) (Homo sapiens, UniProt P45983)
- Sequence (P45983 whole entry, species assumed): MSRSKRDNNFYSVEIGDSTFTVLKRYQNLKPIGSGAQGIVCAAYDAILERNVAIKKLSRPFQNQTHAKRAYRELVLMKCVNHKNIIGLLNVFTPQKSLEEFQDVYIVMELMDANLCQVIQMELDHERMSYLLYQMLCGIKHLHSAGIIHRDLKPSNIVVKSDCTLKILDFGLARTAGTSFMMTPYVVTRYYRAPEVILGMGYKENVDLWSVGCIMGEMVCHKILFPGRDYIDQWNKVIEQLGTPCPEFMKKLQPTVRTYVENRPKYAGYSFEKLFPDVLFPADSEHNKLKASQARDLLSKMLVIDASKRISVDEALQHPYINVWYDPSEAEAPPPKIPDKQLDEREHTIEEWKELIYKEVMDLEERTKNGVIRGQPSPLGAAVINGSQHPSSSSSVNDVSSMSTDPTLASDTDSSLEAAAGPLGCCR
- PROCEDURE_SUMMARY: FRET-based coupled-enzyme protein kinase inhibition assay
- Assay type: biochemical
- EXPERIMENTAL_SETUP: compound at 10 µM, 1% DMSO
- Method: A biochemical assay was then performed in order to measure the protein kinase inhibition. It employed a fluorescence-based coupled-enzyme format and was based on the differential sensitivity of phosphorylated and non-phosphorylated peptides to proteolytic cleavage. […] A significant benefit of this ratiometric method for quantitating reaction progress is the elimination of well-to-well variations in FRET-peptide concentration and signal intensities. […]
EXPERIMENTAL_ENDPOINT: inhibition at 10 µM (%)
Output spec: scalar in %, unitless text.

Some compounds with recorded inhibition at 10 µM:
compound="CS(=O)(=O)N1CC2(CCN(C(=O)OC[C@H]3O[C@@H](n4cnc5c(N)ncnc54)[C@H](O)[C@@H]3O)CC2)c2ccccc21 [Compound C98]" val=4
compound="Nc1ncnc2c1ncn2[C@@H]1O[C@H](COC(=O)N2CCN(Cc3ccccc3)CC2CO)[C@@H](O)[C@H]1O (stereo partly shown) [Compound C13]" val=2
compound="CC(C)N1CCC(NC(=O)OC[C@H]2O[C@@H](n3cnc4c(N)ncnc43)[C@H](O)[C@@H]2O)CC1 [Compound C19]" val=0

Challenge: I am curious: what inhibition at 10 µM value has been reported for Nc1ncnc2c1ncn2[C@@H]1O[C@H](COC(=O)N[C@@H]2CCN(Cc3ccccc3)C2)[C@@H](O)[C@H]1O [Compound C10] ?
Response given: 6

Challenge: Can you handle Nc1ncnc2c1ncn2[C@@H]1O[C@H](COC(=O)N2CCS(=O)(=O)CC2)[C@@H](O)[C@H]1O [Compound C100] next?
Response given: 7

* * *

Items are presented alongside their recorded inhibition at 10 µM.
- EXPERIMENTAL_TARGET: ABL1 (Homo sapiens, UniProt P00519)
- Sequence (P00519 whole entry, species assumed): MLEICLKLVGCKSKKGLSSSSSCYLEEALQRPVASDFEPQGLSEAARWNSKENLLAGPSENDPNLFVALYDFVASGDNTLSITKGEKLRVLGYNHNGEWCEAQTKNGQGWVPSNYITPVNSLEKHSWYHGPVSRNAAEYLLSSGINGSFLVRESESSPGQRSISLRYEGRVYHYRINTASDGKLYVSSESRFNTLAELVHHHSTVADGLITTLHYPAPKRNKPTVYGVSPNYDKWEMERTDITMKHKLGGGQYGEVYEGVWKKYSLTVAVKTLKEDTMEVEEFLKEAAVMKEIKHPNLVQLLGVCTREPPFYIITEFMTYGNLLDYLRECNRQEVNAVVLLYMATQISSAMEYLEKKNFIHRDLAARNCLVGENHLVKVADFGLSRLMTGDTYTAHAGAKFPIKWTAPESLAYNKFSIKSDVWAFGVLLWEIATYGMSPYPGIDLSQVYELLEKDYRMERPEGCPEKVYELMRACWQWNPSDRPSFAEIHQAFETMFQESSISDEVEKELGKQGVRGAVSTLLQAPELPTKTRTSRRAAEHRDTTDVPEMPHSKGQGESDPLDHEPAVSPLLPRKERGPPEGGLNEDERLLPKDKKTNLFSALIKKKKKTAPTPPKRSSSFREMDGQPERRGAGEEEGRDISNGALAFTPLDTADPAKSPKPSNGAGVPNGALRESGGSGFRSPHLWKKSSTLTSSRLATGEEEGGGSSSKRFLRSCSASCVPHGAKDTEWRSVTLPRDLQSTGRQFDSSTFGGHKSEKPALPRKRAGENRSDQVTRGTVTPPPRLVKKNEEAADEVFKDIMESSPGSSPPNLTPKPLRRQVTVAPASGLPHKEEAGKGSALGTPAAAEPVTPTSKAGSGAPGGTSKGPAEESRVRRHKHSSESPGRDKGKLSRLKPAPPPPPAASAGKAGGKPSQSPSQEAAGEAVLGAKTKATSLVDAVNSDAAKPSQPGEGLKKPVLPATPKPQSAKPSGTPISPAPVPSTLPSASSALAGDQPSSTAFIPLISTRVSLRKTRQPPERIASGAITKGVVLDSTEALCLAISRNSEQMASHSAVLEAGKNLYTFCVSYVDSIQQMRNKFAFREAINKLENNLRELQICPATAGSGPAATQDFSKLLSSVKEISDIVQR
- PROCEDURE_SUMMARY: FRET-based coupled-enzyme protein kinase inhibition assay
- Type: biochemical
- EXPERIMENTAL_SETUP: compound at 10 µM, 1% DMSO
- Experimental: A biochemical assay was then performed in order to measure the protein kinase inhibition. It employed a fluorescence-based coupled-enzyme format and was based on the differential sensitivity of phosphorylated and non-phosphorylated peptides to proteolytic cleavage. […] A significant benefit of this ratiometric method for quantitating reaction progress is the elimination of well-to-well variations in FRET-peptide concentration and signal intensities. […]
Output spec: scalar in %, unitless text.

Some molecules with recorded inhibition at 10 µM:
smiles_notation=CN1CCN(CCNC(=O)OC[C@H]2O[C@@H](n3cnc4c(N)ncnc43)[C@H](O)[C@@H]2O)CC1 experimental_target="ABL1 (Homo sapiens, UniProt P00519)" val=10
smiles_notation=Nc1ncnc2c1ncn2[C@@H]1O[C@H](COC(=O)N2CCN(C(=O)N3CCOCC3)CC2)[C@@H](O)[C@H]1O experimental_target="ABL1 (Homo sapiens, UniProt P00519)" val=-3
smiles_notation=Nc1ncnc2c1ncn2[C@@H]1O[C@H](COC(=O)N2CCC[C@H]2CO)[C@@H](O)[C@H]1O experimental_target="ABL1 (Homo sapiens, UniProt P00519)" val=-2
smiles_notation=Nc1ncnc2c1ncn2[C@@H]1O[C@H](COC(=O)NCCCc2nc3ccccc3[nH]2)[C@@H](O)[C@H]1O experimental_target="ABL1 (Homo sapiens, UniProt P00519)" val=13
smiles_notation=Nc1ncnc2c1ncn2[C@@H]1O[C@H](COC(=O)NCCN2CCCC2=O)[C@@H](O)[C@H]1O experimental_target="ABL1 (Homo sapiens, UniProt P00519)" val=-5
smiles_notation=Nc1ncnc2c1ncn2[C@@H]1O[C@H](COC(=O)N2CCN(CCc3ccccc3)CC2)[C@@H](O)[C@H]1O experimental_target="ABL1 (Homo sapiens, UniProt P00519)" val=2

Challenge: I am curious: what inhibition at 10 µM value has been reported for CC(C)N1CCC(NC(=O)OC[C@H]2O[C@@H](n3cnc4c(N)ncnc43)[C@H](O)[C@@H]2O)CC1 ?
Response given: -3
